Tested on: K4 kissing-loop RNA reporter;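 further: bound reporter read as fluorescence of individual clusters on recovered sequencing chips by microscopy, with normalized cluster intensities fitted with a binding model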
Assay: apparent KD of K4 kissing-loop reporter; higher = weaker reporter binding
Details: Eterna round: R107; input ligand: tryptophan 2.4 mM
experimental.endpoint: apparent KD of K4 kissing-loop reporter (nM)
Give bare numbers, in nM.

chain_sequence="GCCAGUGAUGUUGGCAUUUCGAGCCAUGAAGGAGCGCACGGAAGUGCAGGUAGGUCGCAUGGUACUUAGGAUAUUACCCUAAGUA [Isterare]" experimental_endpoint="apparent KD of K4 kissing-loop reporter" value_unit=nM endpoint_result=161

Below are 6 sequences. Give each one its apparent KD of K4 kissing-loop reporter.
1. UUAGUUAGAUUAUUAUUAGCCUACAAUGCUAAGGAUAUCCGAAUUCGGAGAAGGUAGUGAUGUUACUUAAGUAGGCACUAACAUU [AK7 Exc FMN A]
2. GUUGAUCAUGGAAGGAGCGCCCAUUGUCGACACGAGUGAUGUUCGUGUCGUUAAUUAUGAGGGCAGGUAGGUCGCCGUGUGCUUU [Soqugebi]
3. AAUCACCGAGCGGCCGCCACUGCACAAAGCGAGUUUAUAGACACGGUACUGGAGUGAUGUUCGAGCAGGACCGGGCUAACUAAGC [theeternabot_sameState_KL_Trp_B_12]
4. AACGUUUUGAGAAGGAGCGCGAUAAGCAGUGAUGUUGCUAAAAUUCUAUUUCAAUUUAAUACGCAGGUAGGUCGCUCAAUACGUA [JR_SSArginiB_Sub020]
5. CGACGCCGGUCGGCCGCCACUCACAGCAGCCAGUGAUGUUGGAUUGUAGCGGAGUGAUGUUUCGCGAGGACCGGGACUGCAGUCG [Same State Tryptophan B GF 12]
6. GAGGUGCUGAUGCGGUGGCCGGUGGUCGUGCGAGGACCGGUACGGCCGCCACUCGCAUGAGUGAUGUUCAUGUGUCGUCGUCGUC [whbob_EX_Tryp_A_t3]

1: 671; 2: 128; 3: 729; 4: 118; 5: 143; 6: 172

Below are 4 sequences. Give each one its apparent KD of K4 kissing-loop reporter.
1. AGACUUCACCGAAGGAGCGACGUAGCCUAGUGAUGUUAGGCAAGAGAGAAAUCUCUUAUACGUCAGGUAGGUCGCGGUGAAGUCA [Omei KL Arginine B SS C v2]
2. UAUAUAGUGAUGUUAUAUGGGAAGGAGUUACGAGGACCGGUACGGCCGCCACUCGAAACGAGUGAGGAUUUGGGAGAUUGGGUUU [SSTryptA.S]
3. GUGAUAUCGCAAGGAUAUCCAAUUUCUGCGGAUAAGUGAUGUUUGGCGCCGCCUCAGUUAUGGCAAGGAGAAGGUGCGGCCUAGC [theeternabot_sameState_KL_FMN_B_28]
4. AGUACAAUGGCGGCCGCCACUCAACGCAGAUCAAAGAUCUGCGAUCACUCAGUGAUGUUGAGUGAGAGGACCGGGCCUUUGUACA [Omei KL Tryp B SS B v6]

150
232
383
135

Report apparent KD of K4 kissing-loop reporter for AGGGACUCUUCGGAGUCCCGGUCAAGGGAUACCAGUGAUGUUGGUCACCCUUGGCAGCCCAGAAACCAAGCCACCAAAGGUGGCA [Omei KL Theo A Exc A v3] please.
107

----------
System: MS2 coat protein
Assay: apparent KD of MS2 coat protein; designed switch direction (-1 OFF switch, 1 ON switch): -1; higher = weaker reporter binding
Conditions: Eterna round: R95; input ligand: microRNA oligo, concentration not stated
experimental.endpoint: apparent KD of MS2 coat protein (nM)
Numbers only, in nM.

Observe how each entry below is paired with its result.
chain_sequence="UUUAAUUUUUUUUUUUUACAAGCUUUUUGCUCGUCUUAUACAUGAGGAUCACCCAUGUAGGUGAGAAAUGAAUUAUC [JMF 94] (puzzle: Sensor v3, turn-off variant 2)" endpoint_result=152
chain_sequence="GAUCAGCUUGUGAGGAUAUCCGGGCUUAAAGGCUAGGAGAAGGUACAUGAGGAUCACCCAUGUAGAGUCCUGGG [Zageesen] (puzzle: Brourd's mod of Exclusion 4)" endpoint_result=50.4
chain_sequence="AGAUGACUGGAGGAUAUCCGAUGCUUCCUGCCAGGAGAAGGCCGGACAUGAGGAUCACCCAUGUGGUGAGCUCG [Vezaatinle] (puzzle: Exclusion 6)" endpoint_result=347

Below are 3 sequences. Give each one its apparent KD of MS2 coat protein.
1. CCUCCACAUGAGGAUCACCCAUGUCAGGAUAUCGCGCGCGCGUUUUCGGUCUUUCGCGCGAGAAGGGACGACUG (puzzle: Exclusion 1)
2. AUCAUGUCAGGAUAUGUGACAUGGAUCUUCGGAUCAAGAUCACAGAAGGGACAUGAGGAUCACCCAUGUCGAUC [Ex4-3: 29] (puzzle: Exclusion 4)
3. UGAAUGUGAGGAUAUGGUGAGUAGUGCCUAAGCGCUGCUCACCAGAAGGCACAUGAGGAUCACCCAUGUACUUG [Mat - Exclusion 4 - Mod of JL - D19] (puzzle: Exclusion 4)

1: 29; 2: 66.9; 3: 47.9

Source: the supplement of paper PMC9170038
